B1: HDV Ribozyme (parent)
chain: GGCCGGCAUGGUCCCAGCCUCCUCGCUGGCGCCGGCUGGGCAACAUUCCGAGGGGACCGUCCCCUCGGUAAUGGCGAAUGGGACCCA

Variants of: B1
Experiment: self-cleavage, relative activity (ratio to wild type); higher = more cleavage; co-transcriptional
// reported self-cleavage for each item listed
experimentalEndpoint: self-cleavage

>>> reportedresult("G6A C85G")
0.608
>>> reportedresult("C7G C21U")
0.0594
>>> reportedresult("G5U C32G")
0.196
>>> reportedresult("G55U U79A")
0.635
>>> reportedresult("C44A A71G")
0.427
>>> reportedresult("C18A G76A")
0.0678
>>> reportedresult("G31A C64G")
0.408
>>> reportedresult("G10A C14A")
0.205
>>> reportedresult("C32G A56U")
0.0482
>>> reportedresult("G10U G80U")
0.0944
>>> reportedresult("C4U A77C")
0.0978
>>> reportedresult("U46C U69A")
0.918
>>> reportedresult("G28U U69G")
0.208
>>> reportedresult("C33U G67A")
0.749
>>> reportedresult("G10C G54A")
0.831
>>> reportedresult("A16C G81U")
0.519
>>> reportedresult("A16G G80U")
0.208
>>> reportedresult("G1C U23C")
0.0831
>>> reportedresult("C44G G53C")
0.733
>>> reportedresult("C75U A83G")
0.166
>>> reportedresult("U12G G53C")
0.831
>>> reportedresult("C32G G67C")
0.149
>>> reportedresult("C4U U72G")
0.361
>>> reportedresult("G31A C32U")
0.315
>>> reportedresult("G29C A83G")
0.0863
>>> reportedresult("C61G C75A")
0.166
>>> reportedresult("G29U G31A")
0.135
>>> reportedresult("C7U C32G")
0.0361
>>> reportedresult("A16G G54A")
0.727
>>> reportedresult("C13A C58U")
0.415
>>> reportedresult("G53U G67C")
0.534
>>> reportedresult("A16U C41G")
0.401
>>> reportedresult("A56G A83U")
0.684
>>> reportedresult("C33G G50A")
0.148
>>> reportedresult("G38C G81C")
0.0354
>>> reportedresult("G11C C86U")
0.38
>>> reportedresult("U47C C48U")
0.597
>>> reportedresult("C21G G54C")
0.0264
>>> reportedresult("C64U U69A")
1.02
>>> reportedresult("G17A C62U")
0.554
>>> reportedresult("G11A G67C")
0.456
>>> reportedresult("C3A U72G")
0.0712
>>> reportedresult("C7A G59C")
0.578
>>> reportedresult("U47A C61A")
0.886
>>> reportedresult("C18G G59U")
0.312
>>> reportedresult("C18G C19U")
0.0898
